// provenance: patent US5627181A

Staph. 9TV measurements of MIC, listed per entry.

- Chemical String: "CC(=O)NC[C@H]1CN(c2ccc(-c3ccc(C=O)cc3)cn2)C(=O)O1"
  Target: "Staph. 9TV"
  MIC (µg/mL): 0.5
- Chemical String: "CC(=O)NC[C@H]1CN(c2ccc3ncccc3c2)C(=O)O1"
  Target: "Staph. 9TV"
  MIC (µg/mL): 8
- Chemical String: "CC(=O)NC[C@H]1CN(c2ccc(-c3ccc(C(C)=O)cc3)cn2)C(=O)O1"
  Target: "Staph. 9TV"
  MIC (µg/mL): 1
- Chemical String: "CC(=O)NC[C@H]1CN(c2ccc(-c3ccc(C)cc3)cn2)C(=O)O1"
  Target: "Staph. 9TV"
  MIC (µg/mL): 1
- Chemical String: "CC(=O)NC[C@H]1CN(c2ccc(-c3ccccc3C=O)cn2)C(=O)O1"
  Target: "Staph. 9TV"
  MIC (µg/mL): 2
- Chemical String: "CC(=O)NC[C@H]1CN(c2ccc(-c3csc(C=O)c3)cn2)C(=O)O1"
  Target: "Staph. 9TV"
  MIC (µg/mL): 2
- Chemical String: "CC(=O)NC[C@H]1CN(c2ccc(-c3cccc(C(C)=O)c3)cn2)C(=O)O1"
  Target: "Staph. 9TV"
  MIC (µg/mL): 4
- Chemical String: "CC(=O)NC[C@H]1CN(c2ccc(-c3ccccc3)cn2)C(=O)O1"
  Target: "Staph. 9TV"
  MIC (µg/mL): 0.5
- Chemical String: "CC(=O)NC[C@H]1CN(c2ccc(-c3cccc(C=O)c3)cn2)C(=O)O1"
  Target: "Staph. 9TV"
  MIC (µg/mL): 0.125

---

Test system: Staph. 48N
// reported MIC for each item listed

- Chemical String: "CC(=O)NC[C@H]1CN(c2ccc(-c3ccccc3C=O)cn2)C(=O)O1"
  Value Units: "µg/mL"
  MIC: 4
- Chemical String: "CC(=O)NC[C@H]1CN(c2ccc(-c3ccc(C(C)=O)s3)cn2)C(=O)O1"
  Value Units: "µg/mL"
  MIC: 0.5
- Chemical String: "CC(=O)NC[C@H]1CN(c2ccc(-c3ccc(C(C)=O)cc3)cn2)C(=O)O1"
  Value Units: "µg/mL"
  MIC: 4
- Chemical String: "CC(=O)NC[C@H]1CN(c2ccc(-c3ccc(F)cc3)cn2)C(=O)O1"
  Value Units: "µg/mL"
  MIC: 2
- Chemical String: "CC(=O)NC[C@H]1CN(c2ccc(-c3csc(C=O)c3)cn2)C(=O)O1"
  Value Units: "µg/mL"
  MIC: 4

---

System: E. coli Neumann
// reported MIC for each item listed

- Chemical String: "CC(=O)NC[C@H]1CN(c2ccc(-c3ccc(C(C)=O)cc3)cn2)C(=O)O1"
  MIC: "> 32 µg/mL"
- Chemical String: "CC(=O)NC[C@H]1CN(c2ccc3cccc(-c4ccc(C)cc4)c3n2)C(=O)O1"
  MIC: "> 32 µg/mL"
- Chemical String: "CC(=O)NC[C@H]1CN(c2ccc(-c3ccc(C=O)cc3)cn2)C(=O)O1"
  MIC: "> 32 µg/mL"
- Chemical String: "CC(=O)NC[C@H]1CN(c2ccc(-c3ccccc3C=O)cn2)C(=O)O1"
  MIC: "> 32 µg/mL"
- Chemical String: "CC(=O)NC[C@H]1CN(c2ccc(-c3ccc(C(C)=O)s3)cn2)C(=O)O1"
  MIC: "> 32 µg/mL"
- Chemical String: "CC(=O)NC[C@H]1CN(c2ccc(-c3ccc(C)cc3)cn2)C(=O)O1"
  MIC: "> 32 µg/mL"
- Chemical String: "CC(=O)NC[C@H]1CN(c2ccc(-c3ccc(F)cc3)cn2)C(=O)O1"
  MIC: "> 64 µg/mL"
- Chemical String: "CC(=O)NC[C@H]1CN(c2ccc(-c3ccc(F)c(Cl)c3)cn2)C(=O)O1"
  MIC: "> 64 µg/mL"
- Chemical String: "CC(=O)NC[C@H]1CN(c2ccc(-c3cccc(C=O)c3)cn2)C(=O)O1"
  MIC: "> 32 µg/mL"
- Chemical String: "CC(=O)NC[C@H]1CN(c2ccc(-c3cccc([N+](=O)[O-])c3)cn2)C(=O)O1"
  MIC: "> 64 µg/mL"
- Chemical String: "CC(=O)NC[C@H]1CN(c2ccc(-c3cccc(C(C)=O)c3)cn2)C(=O)O1"
  MIC: "> 64 µg/mL"
- Chemical String: "CC(=O)NC[C@H]1CN(c2ccc(-c3csc(C=O)c3)cn2)C(=O)O1"
  MIC: "> 32 µg/mL"
- Chemical String: "CC(=O)NC[C@H]1CN(c2ccc3ncccc3c2)C(=O)O1"
  MIC: "> 64 µg/mL"
- Chemical String: "CC(=O)NC[C@H]1CN(c2ccc(-c3ccccc3)cn2)C(=O)O1"
  MIC: "> 32 µg/mL"
